target: T1, human transferrin receptor (hTfR) fused to EGFP, on CHO cells (human, UniProt P02786 1-760); test: apparent Kd, flow cytometry, CHO cells
T1 construct: whole, on cells; also called human TfR; CHO-hTfR-EGFP; not shown: EGFP from pEGFP-C1 vector, fused to the N-terminal (intracellular) end of hTfR
T1 sequence (P02786 whole entry, the tested form may be a part): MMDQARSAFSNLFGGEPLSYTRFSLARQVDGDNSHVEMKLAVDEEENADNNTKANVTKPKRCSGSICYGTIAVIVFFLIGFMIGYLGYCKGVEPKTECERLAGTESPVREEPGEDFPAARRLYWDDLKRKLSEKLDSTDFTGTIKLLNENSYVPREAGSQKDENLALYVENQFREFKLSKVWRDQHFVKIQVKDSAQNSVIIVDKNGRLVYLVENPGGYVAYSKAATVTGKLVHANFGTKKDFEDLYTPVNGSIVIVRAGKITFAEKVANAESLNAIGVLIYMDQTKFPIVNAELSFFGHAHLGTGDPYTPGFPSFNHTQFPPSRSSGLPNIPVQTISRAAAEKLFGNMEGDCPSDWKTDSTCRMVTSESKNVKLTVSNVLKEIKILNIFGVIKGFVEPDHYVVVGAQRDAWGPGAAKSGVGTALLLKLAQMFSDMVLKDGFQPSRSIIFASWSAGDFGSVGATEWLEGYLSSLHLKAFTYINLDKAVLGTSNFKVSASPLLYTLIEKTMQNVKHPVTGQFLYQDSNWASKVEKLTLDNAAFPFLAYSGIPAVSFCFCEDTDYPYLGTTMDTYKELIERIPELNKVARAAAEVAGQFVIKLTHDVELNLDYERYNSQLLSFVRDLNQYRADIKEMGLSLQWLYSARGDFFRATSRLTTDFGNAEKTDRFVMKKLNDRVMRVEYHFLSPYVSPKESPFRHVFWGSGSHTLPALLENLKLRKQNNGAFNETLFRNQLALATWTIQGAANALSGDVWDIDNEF
pKd: −log10 of the molar value.

{"columns": ["BINDER", "pKd"],
 "data": [
  ["C5^V23 (VHH) VHH: EVQLVESGGGVVQPGGSLKLSCVASGTDFSINFIRWYRQAPGKQREFVAGFTATGNTNYADSMKGRFTISRDNTKNAVYLQIDSLKPEDTAVYYCHMLDKWGQGTQVTVSS", 8.35],
  ["B8^V8 (VHH) VHH: EVQLVESGGGVVQPGGSLRLSCAASGEIFSINFMRWYRQAPGKQREWVAGFTRDGSLNYPDSAKGRFTISRDNAKNTVYLQIDSLKPEDTAVYYCYMLDTWGQGTQVTVSS", 8.60]
]}

Ref: patent US20230414780A1
